- Tested on: UO-31
- Assay Notes: NCI tumour cell line growth inhibition, 48 h
Active and inactive are the calls of the source. Cut-off read from the data, not from the text of the source: active = GI50 up to about 1.1 µM and inactive = higher.
Measure: GI50

For `O=C1c2cc([N+](=O)[O-])cnc2S(=O)(=O)N1c1ccc(Oc2ccccc2)cc1` on UO-31, measured GI50 was > 100 µM (inactive)

For OCC1O[C@H](O[C@@H]2CCCN3CC(O)C(O)[C@@H]23)C(O)C(O)C1O (stereo partly drawn) on UO-31, measured GI50 was > 100 µM (inactive)

For CC(C)CCCC(=O)CCCCCCC(=O)CCN(O)C(=O)C(N)CO (stereo not drawn) on UO-31, measured GI50 was 12.2 µM (inactive)

For O=C1c2ccccc2C(=O)c2c(O)c(O)cc(O)c21 [PURPURIN] on UO-31, measured GI50 was 19 µM (inactive)

For `CN(C)c1cccc(-c2cc(O)c3cc4c(cc3n2)OCO4)c1` on UO-31, measured GI50 was 0.667 µM (active)

For COc1ccc(/C=C2\CCC(CN(C)C)C2=O)cc1 (stereo not drawn) on UO-31, measured GI50 was 8.59 µM (inactive)

For CO/N=C1\CCC2(O)C3Cc4ccc(O)c5c4C2(CCN3CC2CC2)[C@H]1O5 (stereo partly drawn) on UO-31, measured GI50 was > 100 µM (inactive)

For `CCN(CC)Cc1cc(Nc2ccnc3ccc4nn(C)nc4c23)ccc1O` on UO-31, measured GI50 was 11.9 µM (inactive)

For `COC(=O)C1=C(C(=O)OC)C2OC1c1cc3ccccc3cc12` on UO-31, measured GI50 was 1.54 µM (inactive)

For `CC1(CCC(=O)OC2CCCCC2)OCCO1` on UO-31, measured GI50 was > 100 µM (inactive)

Continuing:
For C[C@H](NC(=O)OC1C2C=CC(O)C1CC2)c1ccccc1 (stereo partly drawn) on UO-31, measured GI50 was > 100 µM (inactive)

For `NC(=O)c1cnc2sc3ccccc3n2c1=O` on UO-31, measured GI50 was 77.1 µM (inactive)

For COc1ccc(C(=O)C#Cc2cn(C3CC(O)C(CO)O3)c(=O)[nH]c2=O)cc1 (stereo not drawn) on UO-31, measured GI50 was > 100 µM (inactive)

For `C=C(C)CNCCN` on UO-31, measured GI50 was > 100 µM (inactive)

For CC(=O)NC1C(OCc2ccccc2)OC(CO)C(O)C1OC(C)C(=O)NC(C(=O)NC(CCC(=O)Nc1ccc2c(c1)CN1C(=O)c3ccccc3C1=N2)C(N)=O)C(C)C (stereo not drawn) on UO-31, measured GI50 was > 100 µM (inactive)

For `O=C(C(=O)n1ccc2ccccc21)n1ccc2ccccc21` on UO-31, measured GI50 was > 100 µM (inactive)

For `CCc1ccccc1NNc1cc(=O)[nH]c(=O)[nH]1` on UO-31, measured GI50 was 17.2 µM (inactive)

For C[C@]12Cc3conc3C(O)=C1CC[C@@H]1C2CC[C@@]2(C)C1CC[C@]2(C)O (stereo partly drawn) on UO-31, measured GI50 was 16 µM (inactive)

###

Collected GI50 values appear next to each entry.
- System: SNB-78
- Assay Notes: NCI tumour cell line growth inhibition, 48 h
Active and inactive are the calls of the source. Cut-off read from the data, not from the text of the source: active = GI50 up to about 1.1 µM and inactive = higher.

Recorded results for 5 compounds are shown here.
Recorded GI50 (compound `O=S1(=O)NN=C(NCc2ccc(Cl)cc2)c2ccccc21` ): > 100 µM (inactive)

Recorded GI50 (compound COC(=O)/C(=N\O)C(C(=O)C=C(C)C)C(=O)C(=O)Nc1ccccc1C (stereo not given) ): > 100 µM (inactive)

Recorded GI50 (compound `CCCCCCN(CCCCCC)C1=CC(=O)C(=O)c2ccccc21` ): 23 µM (inactive)

Recorded GI50 (compound O=[N+]([O-])c1ccc(C2SCc3nc4ccccc4n32)cc1 (stereo not given) ): > 100 µM (inactive)

Recorded GI50 (compound `CN(C)c1cccc(-c2cc(O)c3cc4c(cc3n2)OCO4)c1` ): 62.8 µM (inactive)

Please look at the following compound next.
Recorded GI50 (compound `O=C1C=CC(=O)c2c1ccc1c3ccccc3n(-c3ccccn3)c21` ): > 100 µM (inactive)

###

- Tested on: M14
- Assay Notes: NCI tumour cell line growth inhibition, 48 h
Calls of active or inactive are those of the source. Cut-off read from the data, not from the text of the source: active = GI50 up to about 1.1 µM and inactive = higher.
Collected GI50 values appear next to each entry.

Recorded results for 4 compounds are shown here.
Recorded GI50 (compound CO/N=C1\CCC2(O)C3Cc4ccc(O)c5c4C2(CCN3CC2CC2)[C@H]1O5 (stereo not given in full) ): > 100 µM (inactive)

Recorded GI50 (compound CC(C)(C)[Si](C)(C)OCCCCC1CC2(S(=O)(=O)C3=CC=C=C=C3)ON1CC2S(=O)(=O)c1ccccc1 (stereo not given) ): > 100 µM (inactive)

Recorded GI50 (compound `O=C1C=C(Nc2nc(O)cc(C(=O)O)n2)c2ccccc2C1=O` ): > 100 µM (inactive)

Recorded GI50 (compound `CCN(CC)Cc1cc(Nc2ccnc3ccc4nn(C)nc4c23)ccc1O` ): 14.3 µM (inactive)

Please look at the following compound next.
Recorded GI50 (compound `O=Cc1c(O)ccc2ccc(O)c(-c3c(O)ccc4ccc(O)cc34)c12` ): > 100 µM (inactive)

###

- Test system: UACC-257
- Assay Notes: NCI tumour cell line growth inhibition, 48 h
The source made the active and inactive calls. Rule as the data show it: active = GI50 up to about 1.1 µM and inactive = higher.
Respond only with the outcome that fits, drawn from t = active, f = inactive

Worked examples, 5 molecules total:
Could you kindly confirm the outcome this assay logged for `CCOC(=O)CN1CC(C2=C(O)CN(CC(=O)OCC)C2=O)=CC1=O` ?
f

Could you kindly confirm the outcome this assay logged for `CSc1c(C#N)c(O)n(-c2ccc(Cl)cc2)c(=O)c1C(C)=O` ?
f

Could you kindly confirm the outcome this assay logged for `Oc1ccc(Br)cc1/C=N/c1c(NC2CCCCC2)oc2ccc(Br)cc12` ?
f

Could you kindly confirm the outcome this assay logged for `CSc1ccc2c(cc1=O)[C@@H](NC(=O)c1ccc(Cl)cc1)CCc1cc(O)c(O)c(O)c1-2` ?
f

Could you kindly confirm the outcome this assay logged for CC(N1CCOCC1)C(O)(c1ccccc1)c1ccccn1 (stereo unspecified) ?
f

Continuing:
Could you kindly confirm the outcome this assay logged for COC(=O)C1=Cc2cn(S(=O)(=O)c3ccc(C)cc3)c3cccc(c23)C(C=C(C)C)N1C(C)=O (stereo unspecified) ?
f

Could you kindly confirm the outcome this assay logged for `CSc1nc(NC(C)C)c2c(n1)Sc1nc3ccccc3n1N=C2` ?
f

Could you kindly confirm the outcome this assay logged for COc1ccc(S(=O)(=O)NC(CCC(=O)NN)C(=O)NN)cc1 (stereo unspecified) ?
f

###

- Test system: UO-31
- Assay Notes: NCI tumour cell line growth inhibition, 48 h
Calls of active or inactive are those of the source. No stated cut-off is given here; in the data, active = GI50 up to about 1.1 µM and inactive = higher.
Measure: GI50

Recorded GI50 (compound C=CC1C2=C(C(=O)NCC2)C2OC(O)C3=C(CCNC3=O)C2C1C (stereo not given) ): > 100 µM (inactive)

Recorded GI50 (compound `CCOC(=O)c1csc(NC(=O)CCN2CCOCC2)n1` ): 78.5 µM (inactive)

Recorded GI50 (compound `NS(=O)(=O)c1nnc(NC(=O)N(c2ccccc2)c2ccccc2)s1` ): 24 µM (inactive)

Recorded GI50 (compound Nc1nc2c(ncn2CC2CCC(CO)C2)c(=O)[nH]1 (stereo not given) ): > 100 µM (inactive)

Recorded GI50 (compound `CS(=O)(=O)OCCN1CCN(C(=O)c2ccc(Cl)c3c(Nc4ccc(S(=O)(=O)N=C(N)N)cc4)c4ccccc4nc23)CC1` ): > 100 µM (inactive)

Recorded GI50 (compound `C(=C\c1ccccc1)/C=N/c1ccc2c(c1)Cc1ccccc1-2` ): > 100 µM (inactive)

Recorded GI50 (compound COC(=O)C1=Cc2cn(S(=O)(=O)c3ccc(C)cc3)c3cccc(c23)C(C=C(C)C)N1C(C)=O (stereo not given) ): 26.1 µM (inactive)

Recorded GI50 (compound CN(C)CCOc1ccc2[nH]c(C(=O)N3CC(CCl)c4c3cc([N+](=O)[O-])c3ccccc43)cc2c1 (stereo not given) ): 15.1 µM (inactive)

Recorded GI50 (compound `CC(C)(C)OC(=O)N(CCCN)CCCCN(CCCN)C(=O)OC(C)(C)C` ): > 100 µM (inactive)

Recorded GI50 (compound `CCOC(=O)Nc1ccc(S(=O)(=O)Nn2cnnc2)cc1` ): 60.1 µM (inactive)

Recorded GI50 (compound COC(=O)C1CC(C=O)=C(SC)N1 (stereo not given) ): > 50 µM (inactive)

Recorded GI50 (compound `Cn1c(=S)[nH]c2sc3c(c2c1=O)CCSC3` ): 11.7 µM (inactive)

Recorded GI50 (compound `CCCCn1cnc2c(c(CC#N)nn2-c2ccccc2)c1=N` ): 60.4 µM (inactive)

Recorded GI50 (compound `CCOC(=O)c1c(SCc2cc(=O)[nH]c(=O)[nH]2)n(-c2ccccc2)c(=S)n(-c2ccccc2)c1=O` ): > 100 µM (inactive)

Recorded GI50 (compound `CN1CSC(=S)N(c2c3ccccc3nc3ccc(Br)cc23)C1` ): 9.06 µM (inactive)

Recorded GI50 (compound CCCCCCCCCCCCCCCCOP(=O)(O)OCC(NC(C)=O)C(=O)O (stereo not given) ): > 100 µM (inactive)

Recorded GI50 (compound `Cc1[nH]nc(C(=O)N/N=C/c2cccs2)c1/N=N\N(C)C` ): 2.49 µM (inactive)

Recorded GI50 (compound `CC1=C(Cl)C[C@@H](/C(C)=C\Cl)O[C@@]1(O)C(Br)Br` ): 25.3 µM (inactive)

Recorded GI50 (compound `COc1ccc(Cc2c(N)[nH]c(=O)n(C)c2=O)cc1` ): 5 µM (inactive)
